observed_property: melting point

Find the recorded melting point belonging to Cc1cc(Oc2ccc(C#N)cc2)ccc1B(O)O [C99] and report it. 161 to 165 °C

Find the recorded melting point belonging to OB1OCc2ccc(Oc3ccc(OC(F)(F)F)cc3)cc21 [C29] and report it. 97 to 101 °C

Find the recorded melting point belonging to OB1OCc2ccc(Sc3cccs3)cc21 [C43] and report it. 99 to 104 °C

Find the recorded melting point belonging to OB1OCc2ccc(Sc3ccccc3)cc21 [C28] and report it. 121 to 124 °C

Find the recorded melting point belonging to CN(c1ccc2c(c1)COB2O)S(=O)(=O)c1ccccc1 [C30] and report it. 85 to 95 °C

Find the recorded melting point belonging to [O-][S+](c1ccc(C(F)(F)F)cc1)c1ccc2c(c1)B(O)OC2 (stereo not drawn) [C93] and report it. 79 to 88 °C

Find the recorded melting point belonging to OB1OCc2ccc(-n3ccc4ccccc43)cc21 [C55] and report it. 135 to 140 °C

Find the recorded melting point belonging to OB1OCc2cc3c(cc21)COB3O [C60] and report it. > 250 °C

Find the recorded melting point belonging to OB1OCc2ccc(NCc3ccccc3)cc21 [C77] and report it. 126 to 133 °C

Find the recorded melting point belonging to OCc1cc2c(cc1Br)COB2O [C59] and report it. > 257 °C

Find the recorded melting point belonging to OB1OCc2ccc(N3CCOCC3)cc21 [C56] and report it. 128 to 132 °C

Find the recorded melting point belonging to CSc1ccc(Sc2ccc3c(c2)B(O)OC3)cc1 [C94] and report it. 117 to 120 °C
